- System Name: human full-length MKNK1 (Homo sapiens (Human), UniProt Q9BUB5, T344D)
- Sequence (Q9BUB5 other isoform, or with tags, fused parts or gaps T344D): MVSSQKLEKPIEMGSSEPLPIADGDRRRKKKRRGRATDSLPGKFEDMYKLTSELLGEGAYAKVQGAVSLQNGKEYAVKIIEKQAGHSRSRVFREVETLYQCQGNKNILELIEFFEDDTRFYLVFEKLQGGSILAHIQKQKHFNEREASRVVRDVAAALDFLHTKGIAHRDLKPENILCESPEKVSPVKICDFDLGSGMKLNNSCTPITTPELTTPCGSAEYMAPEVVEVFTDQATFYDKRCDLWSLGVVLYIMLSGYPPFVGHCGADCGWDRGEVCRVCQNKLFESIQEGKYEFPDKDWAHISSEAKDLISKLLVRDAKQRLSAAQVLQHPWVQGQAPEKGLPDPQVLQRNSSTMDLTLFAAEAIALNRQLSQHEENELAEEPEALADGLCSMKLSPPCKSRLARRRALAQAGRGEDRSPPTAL
- Assay Info: MKNK1 kinase high ATP assay (TR-FRET-based)
- Assay type: biochemical
- Measurement Context: 2 mM ATP final conc.; 15 min preincubation with enzyme
The threshold is 30 nM. Values of IC50 beneath it are tagged 1 (yes); values meeting or exceeding it are tagged 0 (no).

Use these answered entries as a reference point.
[[record]]
compound = "N[C@H]1CCC[C@@H]1Oc1ccc2ncc(-c3cc4ccccc4o3)n2n1"
label_class = "1 (yes)"

[[record]]
compound = "COc1cccc2oc(-c3cnc4ccc(OCC(N)C5CC5)nn34)cc12 (stereo not shown)"
label_class = "1 (yes)"

[[record]]
compound = "N[C@H]1C[C@@H](Oc2ccc3ncc(-c4cc5ccccc5o4)n3n2)C1"
label_class = "1 (yes)"

[[record]]
compound = "NCC(Oc1ccc2ncc(-c3cc4ccccc4o3)n2n1)C1CCOC1 (stereo not shown)"
label_class = "0 (no)"

[[record]]
compound = "COc1cccc2oc(-c3cnc4ccc(OCCCN)nn34)cc12"
label_class = "1 (yes)"


query: I'd appreciate it if you could check whether N[C@H]1C[C@H](Oc2ccc3ncc(-c4cc5ccccc5o4)n3n2)C1 has IC50 smaller than 30 nM.
result: 1 (yes)

query: # TODO verify IC50 < 30 nM strictly for this compound: CC(CN)COc1ccc2ncc(-c3cc4ccccc4o3)n2n1 (stereo not shown)
result: 1 (yes)

query: hey, is IC50 for NCCOc1ccc2ncc(-c3cc4ccccc4o3)n2n1 lower than 30 nM or not?
result: 1 (yes)

query: Could you please tell me whether IC50 recorded for C[C@H](CN)Oc1ccc2ncc(-c3cc4cccc(F)c4o3)n2n1 is less than 30 nM?
result: 0 (no)

query: Please indicate whether the reported IC50 of N[C@H](COc1ccc2ncc(-c3cc4ccccc4o3)n2n1)c1ccccc1 is strictly below 30 nM.
result: 1 (yes)

query: # TODO verify IC50 < 30 nM strictly for this compound: CC(C)(N)CCOc1ccc2ncc(-c3cc4ccccc4o3)n2n1
result: 0 (no)

query: Regarding COc1ccc2oc(-c3cnc4ccc(OCCN)nn34)cc2c1 , kindly confirm whether its IC50 is beneath 30 nM.
result: 1 (yes)

query: Threshold test, IC50 < 30 nM: NC1(COc2ccc3ncc(-c4cc5ccccc5o4)n3n2)CC1
result: 0 (no)

query: I'd appreciate it if you could check whether N[C@H](COc1ccc2ncc(-c3cc4cc(Cl)ccc4o3)n2n1)c1ccccc1 has IC50 smaller than 30 nM.
result: 0 (no)

query: Bench note: check whether NCC(Cc1ccc(F)cc1)Oc1ccc2ncc(-c3cc4ccccc4o3)n2n1 (stereo not shown) shows IC50 below 30 nM
result: 0 (no)

query: Take the compound COc1cccc2oc(-c3cnc4ccc(OCCN)nn34)cc12 and say whether its IC50 is less than 30 nM.
result: 1 (yes)

query: Decide: IC50 of NC[C@H](Oc1ccc2ncc(-c3cc4ccccc4o3)n2n1)c1ccccc1 strictly below 30 nM?
result: 0 (no)

query: Does the reported IC50 of C=CCCC(CN)Oc1ccc2ncc(-c3cc4ccccc4o3)n2n1 (stereo not shown) stay below 30 nM?
result: 0 (no)
